- Tested on: RWPE-1 cells
- Experiment Summary: MTT cell proliferation assay, RWPE-1
- Format: cell-based
- Condition Summary: Homo sapiens, RWPE-1; MTT, 48 h treatment in FBS-free medium; read-out: IC50 Value (Mean ± SD mM) RWPE-1
IC50 under 0.8 mM gets satisfied, anything at or over 0.8 mM gets not satisfied.

Ask: Consider COc1cc([C@@H]2c3cc4c(cc3[C@@H](O[C@@H]3O[C@@H]5CO[C@@H](C)O[C@H]5[C@H](O)[C@H]3O)[C@H]3COC(=O)[C@H]23)OCO4)cc(OC)c1O [Etoposide, reference compound] . Does its IC50 lie strictly below 0.8 mM?
Result: satisfied

Ask: Consider NCCc1c[nH]c2ccccc12 [Tryptamine] . Does its IC50 lie strictly below 0.8 mM?
Result: satisfied

Ask: Consider N[C@@H](Cc1c[nH]c2ccccc12)C(=O)O [Tryptophan] . Does its IC50 lie strictly below 0.8 mM?
Result: satisfied

Ask: Consider O=C(O)c1cccnc1C(=O)O [QA, quinolinic acid] . Does its IC50 lie strictly below 0.8 mM?
Result: not satisfied

Ask: Consider COc1ccc2[nH]cc(CCNC(C)=O)c2c1 [Melatonin] . Does its IC50 lie strictly below 0.8 mM?
Result: not satisfied

Ask: Consider c1ccc2[nH]ccc2c1 [Indole] . Does its IC50 lie strictly below 0.8 mM?
Result: not satisfied

Ask: Consider O=C(O)c1ccccn1 [Picolinic acid] . Does its IC50 lie strictly below 0.8 mM?
Result: not satisfied

Ask: Consider Nc1c(C(=O)O)c2nc3c(C(=O)O)cccc3oc-2cc1=O [CA, cinnabarinic acid] . Does its IC50 lie strictly below 0.8 mM?
Result: satisfied

Ask: Consider NCCc1ccc(O)cc1 [Tyramine, reference compound] . Does its IC50 lie strictly below 0.8 mM?
Result: not satisfied

Ask: Consider Nc1c(O)cccc1C(=O)O [3-HAA, 3-hydroxyanthranilic acid] . Does its IC50 lie strictly below 0.8 mM?
Result: satisfied

Numbers sourced from paper PMC9569450.
